molecular target: 5-hydroxytryptamine receptor 6 (Homo sapiens); test: Antagonist activity at human recombinant 5HT6 receptor expressed in HEK293 cells assessed as inhibition of serotonin-induced cAMP production; format: functional, cell-based
Sequence (P50406 whole entry): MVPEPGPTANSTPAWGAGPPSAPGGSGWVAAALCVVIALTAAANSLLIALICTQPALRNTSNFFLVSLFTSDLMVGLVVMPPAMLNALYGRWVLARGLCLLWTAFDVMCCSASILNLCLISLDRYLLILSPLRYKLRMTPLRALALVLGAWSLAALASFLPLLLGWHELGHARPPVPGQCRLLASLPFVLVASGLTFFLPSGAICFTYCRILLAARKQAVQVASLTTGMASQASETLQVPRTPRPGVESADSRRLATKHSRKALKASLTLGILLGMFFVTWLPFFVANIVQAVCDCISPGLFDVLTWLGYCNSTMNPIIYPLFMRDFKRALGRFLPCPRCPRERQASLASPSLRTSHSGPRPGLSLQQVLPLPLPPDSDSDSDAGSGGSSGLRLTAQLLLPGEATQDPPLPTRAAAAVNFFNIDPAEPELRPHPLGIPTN
readout: log10 of IC50 (log10 of the value in nM)

[[record]]
compound = "Cc1ccc(Nc2nc3c(S(=O)(=O)c4ccc(Br)cc4)nnn3c3ccsc23)cc1C"
measurement = 3.13

[[record]]
compound = "O=S(=O)(c1ccc(Cl)cc1)c1nnn2c1nc(NCC1CCCO1)c1sccc12 (stereo not given)"
measurement = 2.68

[[record]]
compound = "Cc1ccc(S(=O)(=O)c2nnn3c2nc(Nc2cccc(F)c2)c2sccc23)cc1"
measurement = 3.58

[[record]]
compound = "O=S(=O)(c1cccc(Cl)c1)c1nnn2c1nc(Nc1ccc(F)cc1)c1sccc12"
measurement = 3.40

[[record]]
compound = "COCCNc1nc2c(S(=O)(=O)c3cc(C)ccc3C)nnn2c2ccsc12"
measurement = 2.93

[[record]]
compound = "O=S(=O)(c1cccc(Cl)c1)c1nnn2c1nc(NC1CCCC1)c1sccc12"
measurement = 2.23

[[record]]
compound = "Cc1ccc(S(=O)(=O)c2nnn3c2nc(NCc2ccc(F)cc2)c2sccc23)cc1C"
measurement = 2.72

[[record]]
compound = "COCCCNc1nc2c(S(=O)(=O)c3ccccc3)nnn2c2ccsc12"
measurement = 2.41

[[record]]
compound = "CN(C)CCN(C)c1nc2c(S(=O)(=O)c3ccccc3)nnn2c2ccsc12"
measurement = 2.94

[[record]]
compound = "O=S(=O)(c1cccc(Cl)c1)c1nnn2c1nc(NCCc1ccccc1)c1sccc12"
measurement = 2.91

